Reference source: patent EP4585599A1

Experiment: cells
Conditions: Homo sapiens, DLD-1, 240 h, read-out: Cell viability assay IC50 (nM), CTG on Day 10; cell line not given (method: DLD1 and DLD1^-/- cells)
endpoint-name: IC50

COc1cnc(Cl)cc1-c1cc(C)ncc1C(=O)Nc1nc2cnc(N3CCC(O)CC3)cc2s1 [Example 51]: < 100 nM

(Q) Param item = COc1cnc(Cl)cc1-c1cc(C)ncc1C(=O)Nc1nc2ncc(N3CCC(O)CC3)nc2s1 [Example 70] ; retrieve measured IC50.
(A) < 100 nM

(Q) Find the recorded IC50 belonging to [2H]C1(O)CC=C(c2cc3sc(NC(=O)c4cnc(C)cc4-c4cc(Cl)ncc4OC)nc3cn2)CC1 (centres unmarked) [Example 111] and report it.
(A) < 100 nM

(Q) Give its IC50 value. Item: COc1cnc(Cl)cc1-c1cc(C)ncc1C(=O)Nc1nc2cnc(N3CCC(O)CC3)nc2s1 [Example 52]
(A) < 100 nM

(Q) What does the data say about its IC50? Entry: COc1cnc(Cl)c(F)c1-c1cc(C)ncc1C(=O)Nc1nc2ncc(C3=CCC(O)CC3)cc2s1 (centres unmarked) [Example 8]
(A) < 100 nM

(Q) // lookup IC50 for COc1cnc(Cl)cc1-c1cc(C)ncc1C(=O)Nc1nc2cc(F)c(-c3ccc(P(C)(C)=O)cc3)cc2s1 [Example 85]
(A) < 100 nM

(Q) I am curious: what IC50 value has been reported for COc1cnc(Cl)cc1-c1cc(C)ncc1C(=O)Nc1nc2ncc(C(C)(C)O)cc2s1 [Example 95] ?
(A) 100 to 500 nM

(Q) State the recorded IC50 for this entry: COc1cnc(Cl)cc1-c1cc(C)ncc1C(=O)Nc1nc2ccc(N3CCC(O)C3)nc2s1 (centres unmarked) [Example 47]
(A) 500 to 1000 nM

----------
Assay: Mouse PK assay after oral administration
Settings: mouse, plasma, po, 30 mg/kg
endpoint-name: MRT (h)
# unit: h | format: bare number

(Q) I'd like to know its MRT. The compound in question is "COc1cnc(Cl)cc1-c1cc(C)ncc1C(=O)Nc1nc2cnc(-c3c(C)noc3C)cc2s1"
(A) 4.56

----------
# reported log10 IC50; entries follow
Test: cells
Conditions: Homo sapiens, DLD-1, 240 h, read-out: Cell viability assay IC50 (nM), CTG assay, CellTiter Glo, read on Day 10; cell line not given
Parameter value (number): base-10 log of IC50 in nM.

COc1cnc(Cl)cc1-c1cc(C)ncc1C(=O)Nc1nc2ncc(S(C)(=O)=O)cc2s1: 2.80

(Q) Reported log10 IC50 for "COc1cnc(Cl)cc1-c1cc(C)ncc1C(=O)Nc1nc2cnc(-c3[nH]ncc3C)cc2s1" : what is it?
(A) 2.08

(Q) I am curious: what log10 IC50 value has been reported for "COc1cnc(Cl)cc1-c1cc(C)ncc1C(=O)Nc1nc2cnc(N3CC[C@@H](O)C[C@H]3C)nc2s1" ?
(A) 1.33

(Q) Any idea what log10 IC50 was measured for "COc1cnc(Cl)cc1-c1cc(C)ncc1C(=O)Nc1nc2c(C#N)cc(-c3c(C)cnn3C)cc2s1" ?
(A) 1.83

(Q) Using the record for "COc1cnc(Cl)cc1-c1cc(C)ncc1C(=O)Nc1nc2nnc(-c3c(C)cnn3C)cc2s1" , report its log10 IC50.
(A) 3.07

(Q) Entry COc1cnc(Cl)cc1-c1cc(C)ncc1C(=O)Nc1nc2ccc(C3=CCC(O)CC3)c(C#N)c2s1 (stereo not drawn) : reported log10 IC50 = ?
(A) 3.20

(Q) # input compound: "COc1cnc(Cl)cc1-c1cc(C)ncc1C(=O)Nc1nc2ncc(C3=CCOCC3)cc2s1" ; wanted: its log10 IC50
(A) 1.50

(Q) Item "COc1cnc(Cl)cc1-c1cc(C)ncc1C(=O)Nc1nc2ccc(-c3ccncc3Cl)nc2s1" has what recorded log10 IC50?
(A) 2.02

(Q) What value of measured log10 IC50 is listed for "COc1cnc(Cl)cc1-c1cc2cncn2cc1C(=O)Nc1nc2cnc(N3CCC(O)CC3)cc2s1" ?
(A) 3.40

(Q) Sample COc1cnc(Cl)cc1-c1cc(C)ncc1C(=O)Nc1nc2ccc(C3=CCC(O)CC3)c(F)c2s1 (stereo not drawn) — what was its log10 IC50?
(A) 0.88

(Q) I would be grateful if you could share the reported log10 IC50 for "COc1cnc(Cl)cc1-c1cc(C)ncc1C(=O)Nc1nc2cnc(N3CCC(O)CC3)cc2s1" .
(A) 1.93

(Q) Look at this compound and give its reported log10 IC50. COc1cnc(Cl)cc1-c1cc(C)ncc1C(=O)Nc1nc2ncc(C3=CCC(N)CC3)cc2s1 (stereo not drawn)
(A) 1.88

(Q) May I ask what log10 IC50 has been recorded for COc1cnc(Cl)cc1-c1cc(C)ncc1C(=O)Nc1nc2cnc(C3=CCC(O)CC3)nc2s1 (stereo not drawn) ?
(A) 1.07

(Q) // lookup log10 IC50 for "COc1cnc(Cl)cc1-c1cc(C)ncc1C(=O)Nc1nc2ccc(-c3ccn(C)n3)nc2s1"
(A) 2.28

(Q) Which log10 IC50 is listed for COc1cnc(Cl)c(F)c1-c1cc(C)ncc1C(=O)Nc1nc2ncc(C3=CCC(O)CC3)cc2s1 (stereo not drawn) ?
(A) 1.38

(Q) Recorded log10 IC50 of "COc1cnc(Cl)c(F)c1-c1cc(C)ncc1C(=O)Nc1nc2cc(F)c(N3CCC(O)CC3)nc2s1" , please.
(A) 0.60

(Q) // lookup log10 IC50 for "COc1cnc(Cl)cc1-c1cc(C)ncc1C(=O)Nc1nc2ncc(N3CCC(O)CC3)cc2s1"
(A) 1.92

(Q) So what does the record say about log10 IC50 for "COc1cnc(Cl)cc1-c1cc(C)ncc1C(=O)Nc1nc2cnc(-c3c(C)cnn3CCO)cc2s1" ?
(A) 1.35

----------
# IC50 annotations
Assay: cells
Conditions: Homo sapiens, DLD-1, 240 h, read-out: Cell viability assay IC50 (nM), CTG assay, CellTiter Glo, read on Day 10; cell line not given
I only need the number, in nM, no unit after it.

Examples with their reported IC50 follow.
COc1cnc(Cl)cc1-c1cc(C)ncc1C(=O)Nc1nc2ncc(N(C)CCC(C)O)cc2s1 (stereo not shown): 799
COc1cnc(Cl)cc1-c1cc(C)ncc1C(=O)Nc1nc2ncc(C3COCCO3)cc2s1 (stereo not shown): 39.8
COc1cnc(Cl)cc1-c1cc(C)ncc1C(=O)Nc1nc2ncc(N3CCC(O)(CO)CC3)cc2s1: 450

Consider now this further compound.
(Q) Tell me the measured IC50 of "COc1cnc(Cl)cc1-c1cc(C)ncc1C(=O)Nc1nc2ncc(N3CCC(O)CC3)nc2s1" , please.
(A) 14.2

----------
Test: Solubility assay
Conditions: 0.1 m sodium phosphate buffer, pH 7.4, aqueous buffer, kinetic from dmso stock
endpoint-name: solubility
Kindly report the value followed by its unit.

(Q) Bench note: what solubility did "COc1cnc(Cl)cc1-c1cc(C)ncc1C(=O)Nc1nc2cnc(-c3c(C)noc3C)cc2s1" show?
(A) 7.81 µM

----------
Biological target: helicase domain of the Pol θ protein (Homo sapiens, UniProt O75417)
Construct: The helicase domain of the Pol θ protein was purified from insect protein expression system; made in house; host or cells: insect protein expression system
Sequence (O75417 102-554 limits assumed): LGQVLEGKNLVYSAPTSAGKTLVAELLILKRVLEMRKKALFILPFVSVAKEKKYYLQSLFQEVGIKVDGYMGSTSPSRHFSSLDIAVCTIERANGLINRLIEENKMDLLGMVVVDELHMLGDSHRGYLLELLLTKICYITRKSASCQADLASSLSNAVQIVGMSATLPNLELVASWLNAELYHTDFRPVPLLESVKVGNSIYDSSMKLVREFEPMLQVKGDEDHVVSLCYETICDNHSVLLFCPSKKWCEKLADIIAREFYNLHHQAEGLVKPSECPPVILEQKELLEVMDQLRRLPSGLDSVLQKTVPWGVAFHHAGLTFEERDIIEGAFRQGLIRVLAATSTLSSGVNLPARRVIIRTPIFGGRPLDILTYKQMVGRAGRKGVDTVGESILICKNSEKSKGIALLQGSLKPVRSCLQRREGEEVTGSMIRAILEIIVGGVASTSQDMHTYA
Assay: Biochemical Activity Assay (ADP Glo Assay) of Pol θ inhibitor, ATPase activity
Conditions: ADP-Glo, ssDNA substrate, 60 min at room temperature; read-out: Biochemical assay IC50
pIC50: −log10 of the molar value.
Below, each entry is listed with its recorded pIC50.

Example entries begin here.
COc1cnc(Cl)cc1-c1cc(C)ncc1C(=O)Nc1nc2cnc(C3=CC[C@@H](O)CC3)cc2s1 [Example 115]: > 7.30
COc1cnc(Cl)cc1-c1cc(C)ncc1C(=O)Nc1nc2ccc(C3=CCN(C)CC3)nc2s1 [Example 10]: > 7.30
[2H]C([2H])([2H])c1cc(-c2cc(Cl)ncc2OC)c(C(=O)Nc2nc3cnc(C4=CCC(O)CC4)cc3s2)cn1 (stereo not shown) [Example 110]: > 7.30
COc1cnc(Cl)cc1-c1cc(C)ncc1C(=O)Nc1nc2ncc(N3CCC(O)CC3)cc2s1 [Example 59]: > 7.30
COc1cnc(Cl)cc1-c1cc(C)ncc1C(=O)Nc1nc2ccc(-c3ccncc3C)nc2s1 [Example 83]: > 7.30

# context switch: different compound, same pIC50
(Q) Dear colleague, I am looking for the recorded pIC50 of the following compound: CNC1CCN(c2cnc3nc(NC(=O)c4cnc(C)cc4-c4cc(Cl)ncc4OC)sc3c2)CC1 [Example 73]
(A) > 7.30

----------
Assay: Mouse PK assay after oral administration
Settings: male, ICR, mouse, plasma, po, 25 mg/kg
endpoint-name: bioavailability (%)
Give just the number in %; leave the unit off.

(Q) What value of bioavailability has been reported for the following compound? "COc1cnc(Cl)cc1-c1cc(C)ncc1C(=O)Nc1nc2ccc(N3CCC(O)CC3)nc2s1"
(A) 127
